// provenance: patent US9957264B2

target: JAK1 (recombinant purified GST-tagged catalytic domain) (Homo sapiens (Human)); experiment: Jak Biochemical HTRF Assay (JAK1); settings: [ATP] 31.8 μM
Reported metric: IC50 (nM)
Your answer is read as nM, so omit the unit and give the number.

Please review the following examples before continuing.
What IC50 value was documented for this compound, COC1CN([C@H]2CC[C@@](CC#N)(n3nc(Nc4ccc(Cl)cc4)c4c(=O)[nH]ccc43)CC2)C1 ?
1.14

Look up IC50: CC(C)(C)OC(=O)N1CC[C@](CC#N)(n2nc(Nc3ccc(S(C)(=O)=O)cc3)c3c(=O)[nH]ccc32)[C@H](F)C1
0.09

Sample CN(C)S(=O)(=O)c1ccc(Nc2nn(C3(CC#N)CCN(C(=O)CCC#N)CC3)c3cc[nH]c(=O)c23)cc1 — what was its IC50?
0.09

New cases:
Which IC50 is reported for this compound? N#CCC1(n2nc(Nc3ccc([C@@H](O)C(F)(F)F)cc3)c3c(=O)[nH]ccc32)CCN(c2cc(C(F)(F)F)ccn2)CC1 (single isomer, unassigned)
1.14

Please report the recorded IC50 for CC1(C)C(=O)Nc2cc(Nc3nn([C@@]4(CC#N)CCCC[C@H]4F)c4cc[nH]c(=O)c34)ccc21 .
0.04

---

target: JAK2 (recombinant purified GST-tagged catalytic domain) (Homo sapiens (Human)); experiment: Jak Biochemical HTRF Assay (JAK2); conditions: [ATP] 8.5 μM
Reported metric: IC50 (nM)
Your answer is read as nM, so omit the unit and give the number.

Example results:
# query: IC50 of entry Cc1cc(Nc2nn([C@]3(CC#N)CC[C@@H](C(=O)OC(C)(C)C)OC3)c3cc[nH]c(=O)c23)ccc1-n1cccn1 [Example 5-219]
1.36

Would you kindly share the measured IC50 for COC1CN([C@H]2CC[C@](CC#N)(n3nc(Nc4ccc(OC(F)(F)F)cc4)c4c(=O)[nH]ccc43)CC2)C1 [Example 18-16] ?
1.43

New cases:
Would you mind telling me what IC50 value was observed for CC(C)(C)NS(=O)(=O)c1ccc(Nc2nn([C@]3(CC#N)CCCOC3)c3cc[nH]c(=O)c23)cc1 [Example 5-184] ?
0.6

---

Reported values of pIC50 for individual entries
Biological target: JAK1 (recombinant purified GST-tagged catalytic domain) (Homo sapiens (Human), UniProt P23458)
Sequence (P23458 875-1153): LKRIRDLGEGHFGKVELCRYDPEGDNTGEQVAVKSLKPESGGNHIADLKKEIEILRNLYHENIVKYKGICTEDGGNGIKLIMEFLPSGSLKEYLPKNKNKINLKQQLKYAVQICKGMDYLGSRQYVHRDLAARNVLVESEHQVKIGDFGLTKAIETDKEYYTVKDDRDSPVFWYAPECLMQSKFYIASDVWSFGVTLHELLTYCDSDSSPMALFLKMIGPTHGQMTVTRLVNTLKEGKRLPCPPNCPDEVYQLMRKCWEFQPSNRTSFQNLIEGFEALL
Assay: Jak Biochemical HTRF Assay (JAK1)
Conditions: [ATP] 31.8 μM
Method: Jak Biochemical HTRF Assay Protocol The ability of compounds to inhibit the activity of JAK1, JAK2, JAK3, and Tyk2 was measured using a recombinant purified GST-tagged catalytic domain for each enzyme (Invitrogen JAK1 #M4290, JAK2 #M4290, JAK3 #M4290, Tyk2 #M4290) in an HTRF format biochemical assay. […] Plates were shaken and centrifuged and then incubated 60 minutes at room temperature and then read on a Perkin Elmer Envision (λex=337 nm, λem=665 and 615 nm, TRF delay time=20 μs). […]
Friendly reminder that pIC50 comes from taking -log10 of the concentration in mol/L.

Some solved cases for reference:
Quick one: pIC50 for CC(C)(C)OC(=O)[C@@H]1CC[C@@](CC#N)(n2nc(Nc3ccc(Cn4nccn4)cc3)c3c(=O)[nH]ccc32)CO1 [Example 5-97] ?
10.05

Which value of pIC50 has been reported for N#CC[C@]1(n2nc(Nc3ccc(C(N)C(F)(F)F)cc3)c3c(=O)[nH]ccc32)CCCC[C@H]1F (single isomer, unassigned) [Example 5-177] in the records?
10.05

Would you kindly share the measured pIC50 for CN(C)S(=O)(=O)c1ccc(Nc2nn(C3(CC#N)CCN(Cc4ccc(N5CCCC5=O)cc4)CC3)c3cc[nH]c(=O)c23)cc1 [Example 8-14] ?
9.14

Could you share which pIC50 value was measured for CN(C)S(=O)(=O)c1ccc(Nc2nn([C@]3(CC#N)CC[C@@H](N4CC(F)C4)CC3)c3cc[nH]c(=O)c23)cc1 [Example 18-29] ?
10.00

Recorded pIC50 for N#CC[C@@]1(n2nc(Nc3ccc(S(=O)(=O)N4CCC4)cc3)c3c(=O)[nH]ccc32)CCCOC1 [Example 5-105] , please?
9.64

Next:
Quick check: pIC50 of COC(=O)c1ccc(Nc2nn(C3(CC#N)CN(C(=O)OC(C)(C)C)C3)c3cc[nH]c(=O)c23)cc1 [Example 4-2] ?
8.61

Would you mind telling me what pIC50 value was observed for N#CC[C@@]1(n2nc(Nc3ccc(C(N4CCCC4)C(F)(F)F)cc3)c3c(=O)[nH]ccc32)CCCOC1 (single isomer, unassigned) [Example 5-198] ?
9.80

Value lookup for pIC50; key = Cc1ccc2cc(Nc3nn([C@]4(CC#N)CC[C@@H](C(=O)OC(C)(C)C)OC4)c4cc[nH]c(=O)c34)ccc2n1 [Example 5-217]
10.15

Sample CS(=O)(=O)NC(=O)[C@@H]1CC[C@@](CC#N)(n2nc(Nc3ccc(Cl)cc3)c3c(=O)[nH]ccc32)CO1 [Example 22] — what was its pIC50?
8.42

// pIC50 lookup, key: CC1(C)Cc2cc(Nc3nn([C@]4(CC#N)CCCOC4)c4cc[nH]c(=O)c34)ccc2C1(O)C(F)(F)F (single isomer, unassigned) [Example 5-119]
9.82

---

The following molecules are listed with their measured pIC50 values.
target: JAK2 (recombinant purified GST-tagged catalytic domain) (Homo sapiens (Human), UniProt O60674); assay: Jak Biochemical HTRF Assay (JAK2); details: [ATP] 8.5 μM
Sequence (O60674 849-1124): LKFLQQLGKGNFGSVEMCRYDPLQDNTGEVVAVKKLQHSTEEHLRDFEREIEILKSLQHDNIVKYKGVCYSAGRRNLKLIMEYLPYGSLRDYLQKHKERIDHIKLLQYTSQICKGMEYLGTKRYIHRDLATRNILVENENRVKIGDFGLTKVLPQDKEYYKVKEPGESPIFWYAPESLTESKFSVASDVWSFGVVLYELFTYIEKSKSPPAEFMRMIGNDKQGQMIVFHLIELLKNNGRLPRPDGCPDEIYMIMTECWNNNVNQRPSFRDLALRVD
In plain terms, pIC50 is the concentration in mol/L turned into minus its base-10 logarithm.

Worked cases, pIC50 given:
State the recorded pIC50 for this entry: CN(C)S(=O)(=O)c1ccc(Nc2nn(C3(CC#N)CCN(C(=O)O[C@H]4CCOC4)CC3)c3cc[nH]c(=O)c23)cc1
9.04

Could you tell me which pIC50 is on file for COC(=O)N1CCC(CC#N)(n2nc(Nc3ccc(S(=O)(=O)C(C)C)cc3)c3c(=O)[nH]ccc32)CC1 ?
9.64

Quick check: pIC50 of CN(C)S(=O)(=O)c1ccc(Nc2nn(C3(CC#N)CCN(C(=O)C4CCCCC4)CC3)c3cc[nH]c(=O)c23)cc1 ?
8.92

Report pIC50 for Cc1cc(Nc2nn(C3(CC#N)CCN(c4cc(C(F)(F)F)ccn4)CC3)c3cc[nH]c(=O)c23)ccc1C(=O)N1CCSCC1 please.
8.51

Consider the molecule shown here: N#CC[C@]1(n2nc(Nc3ccc(C(F)(F)F)cc3)c3c(=O)[nH]ccc32)CC[C@H](Nc2ccccc2)CC1 What is its recorded pIC50?
6.99

Others:
Which pIC50 reading was recorded for the molecule N#CCC1(n2nc(Nc3ccc(F)cc3)c3c(=O)[nH]ccc32)CCN(C(=O)C2CC2)CC1 ?
8.72

Return reported pIC50; argument: CC(C)(C)OC(=O)N1CC[C@](CC#N)(n2nc(Nc3ccc4c(c3)CN(CC(F)(F)F)S4(=O)=O)c3c(=O)[nH]ccc32)[C@H](F)C1
9.60

Need pIC50, item Cc1cc(Nc2nn([C@]3(CC#N)CC[C@@H](C(=O)OC(C)(C)C)OC3)c3cc[nH]c(=O)c23)ccc1C(=O)N1C[C@@H]2C[C@H]1CO2
9.82

Which value of pIC50 has been reported for CC(C)(C)OC(=O)N1CCC(CC#N)(n2nc(Nc3cc(Cn4ccnn4)cc(Cn4nccn4)c3)c3c(=O)[nH]ccc32)CC1 in the records?
9.34

---

molecular target: JAK1 (recombinant purified GST-tagged catalytic domain) (Homo sapiens (Human)); assay: Jak Biochemical HTRF Assay (JAK1); details: [ATP] 31.8 μM
Param label: returns satisfied when IC50 < 0.4 nM, returns not satisfied otherwise, including exact equality.

Past entries and their recorded results:
Say whether its IC50 is strictly beneath 0.4 nM. Entry: CCN(CC)S(=O)(=O)c1ccc(Nc2nn(C3(CC#N)CCCC3)c3cc[nH]c(=O)c23)cc1
not satisfied

Problem: For the compound CC(C)(C)OC(=O)[C@@H]1CC[C@@](CC#N)(n2nc(Nc3ccc4c(c3)CN(C3CCCCC3)C4=O)c3c(=O)[nH]ccc32)CO1 , is IC50 under 0.4 nM?
satisfied

Find out if reported IC50 for COC(=O)N1CCC(CC#N)(n2nc(Nc3ccc4c(c3)CCC4(O)C(F)(F)F)c3c(=O)[nH]ccc32)CC1 (single isomer, unassigned) [Example 5-144] is less than 0.4 nM
satisfied

For this compound, is IC50 lower than 0.4 nM? CN(C)S(=O)(=O)c1ccc(Nc2nn(C3(CC#N)CCN(C(=O)OCC(F)(F)F)CC3)c3cc[nH]c(=O)c23)cc1
satisfied

Is it true that IC50 reported for CC(C)(C)OC(=O)[C@@H]1CC[C@@](CC#N)(n2nc(Nc3ccc(S(=O)(=O)C4CC4)cc3)c3c(=O)[nH]ccc32)CO1 [Example 5-99] is less than 0.4 nM?
satisfied

Find out if reported IC50 for N#CC[C@]1(n2nc(Nc3cc(F)c4nccc(Cl)c4c3)c3c(=O)[nH]ccc32)CCOC1 (single isomer, unassigned) is less than 0.4 nM
not satisfied

Strictly below 0.4 nM: is that where IC50 of CC1CCN1S(=O)(=O)c1ccc(Nc2nn([C@]3(CC#N)CCCOC3)c3cc[nH]c(=O)c23)cc1 (single isomer, unassigned) [Example 5-108] sits?
satisfied

Field: below-cutoff. Rule: recorded IC50 strictly less than 0.4 nM. Subject: CC(C)(C)OC(=O)N1CCC(CC#N)(n2nc(Nc3ccc(C4(C(F)(F)F)CCN(Cc5ccccc5)C4)cc3)c3c(=O)[nH]ccc32)CC1 (single isomer, unassigned) [Example 5-281]
not satisfied

Further cases:
For this compound, is IC50 lower than 0.4 nM? CS(=O)(=O)c1ccc(Nc2nn(C3(CC#N)CCN(c4ccc(Br)cn4)CC3)c3cc[nH]c(=O)c23)cc1
satisfied

Given the entry N#CCC1(n2nc(Nc3ccc(Cl)cc3)c3c(=O)[nH]ccc32)CCC(O)CC1 (centres unmarked) , would its reported IC50 be below 0.4 nM?
not satisfied

Find out if reported IC50 for CC(OC(=O)N1CCC(CC#N)(n2nc(Nc3ccc(S(=O)(=O)N(C)C)cc3)c3c(=O)[nH]ccc32)CC1)C(F)(F)F (centres unmarked) is less than 0.4 nM
satisfied

Identify whether the compound N#CC[C@@]1(n2nc(Nc3cc(F)c4nccc(Cl)c4c3)c3c(=O)[nH]ccc32)CCOC1 (single isomer, unassigned) records IC50 below 0.4 nM.
not satisfied
